molecular target: Bromodomain-containing protein 4 (Homo sapiens, UniProt O60885); assay: Inhibition of human BRD4 bromodomain 1 expressed in Escherichia coli BL21(DE3)-R3-pRARE2 assessed as change in melting temperature at 10 uM by SYPRO orange dye-based differential scanning fluorimetry
observable: ΔTm (°C)

Before answering, review these 2 worked examples.
molecule: COc1cc(-c2c(OC)cccc2OC)cc2c1OCCN(C(C)=O)C2
ΔTm / °C: 0.2
--
molecule: COc1ccc(-c2cc3c(c(OC)c2)OCCN(C(N)=O)C3)cc1Cl
ΔTm / °C: 3.6

P = CCC(CC)C(=O)N1CCOc2c(cc(-c3cccc(OC)c3)cc2OC)C1
Q = CCC(=S)N1CCOc2c(cc(-c3ccc(OC)c(Cl)c3)cc2OC)C1
Form: Entry with minimum ΔTm (choose one): P / Q Answer = label.
Q
